The measured values listed here are drawn from patent US20250152706A1.

assay: Stability of oxytocin in rat caecum slurry, RP-HPLC; details: Wistar, rat, pH 5.5, % Drug at T = 2 h, Example 6; oxytocin 1 mg/ml, 5-ALA.HCl 20 mg/ml, aprotinin 1 mg/ml in rat caecum slurry
observable: remaining at 2 h, 1 mg/ml (%)
Give your result in % as a bare value.

**Query** # remaining at 2 h, 1 mg/ml lookup, item `CC[C@H](C)[C@@H]1NC(=O)[C@H](Cc2ccc(O)cc2)NC(=O)[C@@H](N)CSSC[C@@H](C(=O)N2CCC[C@H]2C(=O)N[C@@H](CC(C)C)C(=O)NCC(N)=O)NC(=O)[C@H](CC(N)=O)NC(=O)[C@H](CCC(N)=O)NC1=O`
**Result** 10.9
